Molecular target: human recombinant HDAC6 (Homo sapiens)
Construct: purchased Calbiochem Inc. 382180
Assay: HDAC6 enzyme activity inhibition (HDAC Fluorimetric Drug Discovery Kit)
Assay type: biochemical
Details: HDAC6 over HDAC1
Parameter measured: HDAC6 selectivity (fold)

Compound	Value observed
Fc1cc(-c2nnc(C(F)F)o2)ccc1Cn1cc(-c2ccc(CN3CCC(F)(F)CC3)nc2)nn1 [Compound 17778]	603

(1) Fc1cc(-c2nnc(C(F)F)o2)ccc1Cn1cc(-c2ccc(CN3CCCC3)cn2)nn1 [Compound 17533]
(2) Fc1cc(-c2nnc(C(F)F)o2)cnc1Cn1cc(-c2ccc3c(c2)CN(C2CCC2)CC3)nn1 [Compound 19004]
(3) FC(F)c1nnc(-c2ccc(Cn3cc(-c4ccc(CN5CC6(COC6)C5)cc4)nn3)cc2)o1 [Compound 4551]
(4) Fc1cc(-c2nnc(C(F)F)o2)cnc1Cn1cc(-c2cncc(CN3CCC3)c2)nn1 [Compound 18882]
In: Order each entry by recorded HDAC6 selectivity (fold), climbing from the minimum. I would appreciate it if you listed the labels in the requested order.
Out: 4, 2, 1, 3

----------
Molecular target: human recombinant HDAC6 (Homo sapiens)
Construct: purchased Calbiochem Inc. 382180
Assay: HDAC6 enzyme activity inhibition (HDAC Fluorimetric Drug Discovery Kit)
Format: biochemical
Conditions: human recombinant HDAC6; IC50 calculated with GraphPad Prism
Parameter measured: IC50 (nM)

Known IC50 results, listed for orientation:
Smiles code	Value observed
Fc1cc(-c2nnc(C(F)F)o2)ccc1Cn1cc(-c2ccc3c(c2)CCN(C2CN(C4COC4)C2)C3)nn1	48.8
COC(=O)N1CC(c2cn(Cc3ccc(-c4nnc(C(F)F)o4)cn3)nn2)C1	239
CN1CCc2cc(-c3cn(Cc4ccc(-c5nnc(C(F)F)o5)cn4)nn3)ccc2C1	30.8
CC(C)N1CCc2ccc(-c3cn(Cc4ccc(-c5nnc(C(F)F)o5)cc4F)nn3)cc2C1	45.9
FC(F)c1nnc(-c2ccc(Cn3cc(-c4cccc(N5CCOCC5)c4)nn3)cc2)o1	65.3

(A) FC(F)c1nnc(-c2ccc(Cn3cc(-c4cncnc4)nn3)nc2)o1
(B) CN1CCN(c2cccc(-c3cn(Cc4ccc(-c5nnc(C(F)F)o5)cc4)nn3)c2)CC1
In: Short answer wanted: higher IC50, A or B ? // respond with label for picked entry
Out: A

----------
Target: human recombinant HDAC6 (Homo sapiens)
Construct: purchased Calbiochem Inc. 382180
Assay: HDAC6 enzyme activity inhibition (HDAC Fluorimetric Drug Discovery Kit)
Type: biochemical
Conditions: human recombinant HDAC6, same protocol as HDAC1
Method: An experiment was conducted to identify the selectivity of the compound represented by formula I of the present invention to HDAC6 through an experiment on HDAC1 and HDAC6 enzyme activity inhibition. […]
pIC50: −log10 of the molar value.
Parameter measured: pIC50

Smiles code	pIC50
CN1CCN(c2cc(-c3cn(Cc4ccc(-c5nnc(C(F)F)o5)cn4)nn3)ccn2)CC1	7.66
CCN1CCN(Cc2ccccc2-c2cn(Cc3ccc(-c4nnc(C(F)F)o4)cc3F)nn2)CC1	6.66

(P) Fc1cc(-c2nnc(C(F)F)o2)ccc1Cn1cc(-c2ccc(C3CN(C4CCC4)C3)cc2)nn1
(Q) FC1CN(Cc2ccc(-c3cn(Cc4ccc(-c5nnc(C(F)F)o5)cn4)nn3)cc2)C1
In: Short answer wanted: higher pIC50, P or Q ? Mark your selection by writing its label.
Out: Q
(Q: 7.67, P: 7.32)

----------
Target: human recombinant HDAC6 (Homo sapiens, UniProt Q9UBN7)
Construct: purchased Calbiochem Inc. 382180
Assay: HDAC6 enzyme activity inhibition (HDAC Fluorimetric Drug Discovery Kit)
Assay type: biochemical
Settings: human recombinant HDAC6, same protocol as HDAC1
Parameter measured: IC50 (nM)

Smiles code	Assay system	Quantity unit	IC50
CN1CC(NCc2ccc(-c3cn(Cc4ccc(-c5nnc(C(F)F)o5)cc4)nn3)cc2)C1	human recombinant HDAC6 (Homo sapiens, UniProt Q9UBN7)	nM	62.4
Fc1cc(-c2nnc(C(F)F)o2)ccc1Cn1cc(-c2ccc(CN3CCC(F)(F)C3)nc2)nn1	human recombinant HDAC6 (Homo sapiens, UniProt Q9UBN7)	nM	94.1

(1) Fc1cc(-c2nnc(C(F)F)o2)ccc1Cn1cc(-c2ccc(CN3CCC(F)(F)CC3)nc2)nn1
(2) CN1CC(c2cccc(-c3cn(Cc4ccc(-c5nnc(C(F)F)o5)cc4)nn3)c2)C1
In: In terms of reported IC50, does 1 or 2 have the smaller number? Choose, then provide that item's label.
Out: 1
(1: 82.9 nM, 2: 135 nM)

----------
Biological target: human recombinant HDAC6 (Homo sapiens, UniProt Q9UBN7)
Construct: purchased Calbiochem Inc. 382180
Sequence (Q9UBN7 1-1215): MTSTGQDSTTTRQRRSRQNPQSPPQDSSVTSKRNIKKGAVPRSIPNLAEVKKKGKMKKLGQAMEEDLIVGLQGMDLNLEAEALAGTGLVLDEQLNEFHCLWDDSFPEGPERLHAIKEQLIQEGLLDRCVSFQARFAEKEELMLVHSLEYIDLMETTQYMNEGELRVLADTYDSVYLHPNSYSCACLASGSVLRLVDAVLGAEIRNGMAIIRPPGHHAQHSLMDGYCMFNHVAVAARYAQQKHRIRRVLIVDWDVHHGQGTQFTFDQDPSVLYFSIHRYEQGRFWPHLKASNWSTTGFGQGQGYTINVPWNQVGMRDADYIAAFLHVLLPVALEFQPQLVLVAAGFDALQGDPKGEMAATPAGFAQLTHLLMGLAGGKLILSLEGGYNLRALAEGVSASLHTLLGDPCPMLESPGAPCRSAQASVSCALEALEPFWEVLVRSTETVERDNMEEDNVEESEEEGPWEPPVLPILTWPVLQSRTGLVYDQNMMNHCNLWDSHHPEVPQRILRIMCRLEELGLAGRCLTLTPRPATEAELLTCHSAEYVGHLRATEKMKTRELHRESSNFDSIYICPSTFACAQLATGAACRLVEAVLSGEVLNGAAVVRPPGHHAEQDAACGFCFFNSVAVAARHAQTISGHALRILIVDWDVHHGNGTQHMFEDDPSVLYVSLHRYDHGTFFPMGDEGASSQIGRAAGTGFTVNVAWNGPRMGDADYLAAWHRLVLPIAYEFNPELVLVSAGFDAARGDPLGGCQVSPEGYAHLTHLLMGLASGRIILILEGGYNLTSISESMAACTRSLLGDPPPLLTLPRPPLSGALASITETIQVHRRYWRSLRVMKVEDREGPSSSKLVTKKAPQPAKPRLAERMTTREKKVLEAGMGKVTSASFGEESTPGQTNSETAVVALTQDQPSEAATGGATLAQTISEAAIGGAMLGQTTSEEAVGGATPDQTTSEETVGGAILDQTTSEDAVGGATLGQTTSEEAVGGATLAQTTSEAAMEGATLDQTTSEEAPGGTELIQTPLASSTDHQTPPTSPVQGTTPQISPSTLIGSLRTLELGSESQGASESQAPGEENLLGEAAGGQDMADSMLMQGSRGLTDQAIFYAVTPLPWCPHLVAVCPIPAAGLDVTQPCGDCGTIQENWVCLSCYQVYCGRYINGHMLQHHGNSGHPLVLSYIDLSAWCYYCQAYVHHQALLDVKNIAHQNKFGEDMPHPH
Assay: HDAC6 enzyme activity inhibition (HDAC Fluorimetric Drug Discovery Kit)
Assay type: biochemical
Conditions: human recombinant HDAC6; IC50 calculated with GraphPad Prism
pIC50: −log10 of the molar value.
Parameter measured: pIC50

(a) CN1CCc2ccc(-c3cn(Cc4ccc(-c5nnc(C(F)F)o5)cc4F)nn3)cc2C1 [Compound 4363]
(b) CN1CCC(Cc2cn(Cc3ccc(-c4nnc(C(F)F)o4)cn3)nn2)CC1 [Compound 4014]
In: Please tell me which of the two, a or b , has the higher reported pIC50 value. Select an item and report its label.
Out: a
(a: 7.44, b: 6.69)

----------
Target: human recombinant HDAC6 (Homo sapiens, UniProt Q9UBN7)
Construct: purchased Calbiochem Inc. 382180
Assay: HDAC6 enzyme activity inhibition (HDAC Fluorimetric Drug Discovery Kit)
Assay type: biochemical
Conditions: HDAC6 over HDAC1
Parameter measured: HDAC6 selectivity (fold)

Recorded HDAC6 selectivity (fold), per entry:
Smiles code	Value observed
CN1CCN(Cc2ccc(-c3cn(Cc4ccc(-c5nnc(C(F)F)o5)cc4)nn3)cc2)CC1	1184
Fc1cc(-c2nnc(C(F)F)o2)ccc1Cn1cc(-c2ccc(CN3CC[C@H](F)C3)cc2)nn1	2415
Fc1cc(-c2nnc(C(F)F)o2)cnc1Cn1cc(-c2ccc(CN3CCC3)s2)nn1	1160

(I) Fc1cc(-c2nnc(C(F)F)o2)ccc1Cn1cc(-c2cc3c(s2)CNCC3)nn1
(II) CC1CCN(Cc2ccc(-c3cn(Cc4ccc(-c5nnc(C(F)F)o5)cc4F)nn3)s2)CC1
(III) Fc1cc(-c2nnc(C(F)F)o2)ccc1Cn1cc(-c2ccc(CN3CC4(COC4)C3)cc2)nn1
(IV) CC(C)N1Cc2ccc(-c3cn(Cc4ccc(-c5nnc(C(F)F)o5)cn4)nn3)cc2C1
(V) CN1CC(c2cccc(-c3cn(Cc4ccc(-c5nnc(C(F)F)o5)cc4)nn3)c2)C1
In: List from greatest to least HDAC6 selectivity (fold). Output spec: labels arranged per the requested ranking.
Out: III, IV, I, II, V

Origin of the recorded values: patent US20230257372A1
